Values compiled from patent US5985603A.

# test.target: PC12 P2X receptor (Rattus norvegicus)
# Construct: host or cells: HEK293 cells (oocytes are also named for the functional characterisation of clone 3)
# Sequence (P49653 1-472): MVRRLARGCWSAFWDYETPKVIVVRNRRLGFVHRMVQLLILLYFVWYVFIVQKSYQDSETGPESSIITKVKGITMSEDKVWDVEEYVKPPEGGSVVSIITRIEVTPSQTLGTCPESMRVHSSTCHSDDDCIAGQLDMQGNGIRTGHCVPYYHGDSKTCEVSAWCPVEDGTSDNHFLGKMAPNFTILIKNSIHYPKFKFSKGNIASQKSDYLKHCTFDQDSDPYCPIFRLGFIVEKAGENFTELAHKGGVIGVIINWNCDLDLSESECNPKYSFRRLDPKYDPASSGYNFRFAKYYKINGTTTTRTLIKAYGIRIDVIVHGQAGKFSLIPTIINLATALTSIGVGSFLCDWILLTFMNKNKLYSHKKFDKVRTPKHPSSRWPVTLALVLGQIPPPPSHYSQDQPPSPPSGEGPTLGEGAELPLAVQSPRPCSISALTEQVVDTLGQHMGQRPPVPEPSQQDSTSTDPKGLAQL
# assay.protocol: functional properties of cloned P2X receptors (electrical recordings): PC12
# Type: cell-based
# assay.setup: Table A, parameter (EC50) not given; read-out: agonist profile, PC12
pEC50: −log10 of the molar value. Where a name gives a salt, the structure may show the parent alone.
readout.name: pEC50

Ask | Answer with reported pEC50 of Nc1ncnc2c1ncn2[C@@H]1O[C@H](COP(=O)(O)CP(=O)(O)OP(=O)(O)O)[C@@H](O)[C@H]1O [α,β-meATP, α,β-methylene ATP lithium salt]
Reply | < 4.00
